target: LYN (Homo sapiens, UniProt P07948); construct: purchased Perkin Elmer (ProfilerPro assay kit 1); assay: 26-kinase panel mobility shift assay, single concentration; format: biochemical; details: read-out: % Inhibition LYN
Sequence (P07948 whole entry): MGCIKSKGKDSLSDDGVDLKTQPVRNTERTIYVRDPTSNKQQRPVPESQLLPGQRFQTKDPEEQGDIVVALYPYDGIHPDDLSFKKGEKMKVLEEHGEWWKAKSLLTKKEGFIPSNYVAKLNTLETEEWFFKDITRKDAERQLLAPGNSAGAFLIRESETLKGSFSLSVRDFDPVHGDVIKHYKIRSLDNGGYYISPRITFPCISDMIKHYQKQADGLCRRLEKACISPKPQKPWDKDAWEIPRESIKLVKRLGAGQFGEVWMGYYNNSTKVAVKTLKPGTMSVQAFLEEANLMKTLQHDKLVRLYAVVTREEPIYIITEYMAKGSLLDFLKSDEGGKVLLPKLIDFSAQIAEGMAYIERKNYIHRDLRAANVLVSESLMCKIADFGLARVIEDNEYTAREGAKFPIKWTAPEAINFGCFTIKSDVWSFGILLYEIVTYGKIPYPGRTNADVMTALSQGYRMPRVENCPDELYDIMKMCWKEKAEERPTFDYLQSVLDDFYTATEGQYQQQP
inhibition at 100 µM by entry:
EXPERIMENTAL_READOUT: inhibition at 100 µM (%)

# MOLECULAR_STRING, TESTED_SYSTEM, MEASUREMENT
rows = [
    ("Cn1cc(-c2c[nH]c(=O)c(N)c2)cn1", "LYN (Homo sapiens, UniProt P07948)", 49),
    ("Nc1cc(-c2ccnc3ccccc23)c[nH]c1=O", "LYN (Homo sapiens, UniProt P07948)", 27),
    ("CNc1nccc(-c2c[nH]c(=O)c(N)c2)n1", "LYN (Homo sapiens, UniProt P07948)", 63),
    ("Nc1cc(-c2ccnc(NC3CC3)n2)c[nH]c1=O", "LYN (Homo sapiens, UniProt P07948)", 42),
    ("Nc1ccc[nH]c1=O", "LYN (Homo sapiens, UniProt P07948)", 15),
    ("COc1ncc(-c2ccncc2)cc1N", "LYN (Homo sapiens, UniProt P07948)", 15),
    ("Cc1nc(O)c(N)cc1-c1ccncc1", "LYN (Homo sapiens, UniProt P07948)", 10),
]

----------
Target: UniProt:P33981
Sequence (P33981 1-857): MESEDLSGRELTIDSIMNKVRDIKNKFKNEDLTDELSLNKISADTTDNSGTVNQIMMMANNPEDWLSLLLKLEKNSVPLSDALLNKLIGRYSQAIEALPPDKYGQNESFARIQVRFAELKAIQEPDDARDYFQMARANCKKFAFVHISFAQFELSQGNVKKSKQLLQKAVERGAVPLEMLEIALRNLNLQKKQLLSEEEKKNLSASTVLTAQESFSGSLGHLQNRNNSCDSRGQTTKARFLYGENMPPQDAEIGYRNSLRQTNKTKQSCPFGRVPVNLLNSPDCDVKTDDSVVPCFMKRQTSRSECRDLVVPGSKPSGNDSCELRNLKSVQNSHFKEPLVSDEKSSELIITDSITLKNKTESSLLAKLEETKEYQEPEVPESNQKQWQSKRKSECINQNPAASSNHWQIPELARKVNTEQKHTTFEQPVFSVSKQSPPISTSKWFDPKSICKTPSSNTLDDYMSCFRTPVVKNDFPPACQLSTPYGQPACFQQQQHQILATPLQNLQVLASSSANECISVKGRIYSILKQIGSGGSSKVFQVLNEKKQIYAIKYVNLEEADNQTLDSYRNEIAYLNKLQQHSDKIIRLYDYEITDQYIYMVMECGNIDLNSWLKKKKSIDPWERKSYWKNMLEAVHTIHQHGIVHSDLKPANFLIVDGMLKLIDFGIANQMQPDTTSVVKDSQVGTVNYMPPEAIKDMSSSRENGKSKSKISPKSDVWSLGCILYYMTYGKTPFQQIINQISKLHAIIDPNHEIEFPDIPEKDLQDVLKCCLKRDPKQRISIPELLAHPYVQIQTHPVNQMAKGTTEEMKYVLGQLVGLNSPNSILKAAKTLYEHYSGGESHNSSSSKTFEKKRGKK
log10 of Ki by entry:
EXPERIMENTAL_READOUT: log10 of Ki (log10 of the value in µM)

# MOLECULAR_STRING, EXPERIMENTAL_READOUT, MEASUREMENT
rows = [
    ("Nc1cc(-c2cccnc2)c[nH]c1=O", "log10 of Ki", 1.99),
    ("CNc1nccc(-c2c[nH]c(=O)c(N)c2)n1", "log10 of Ki", 1.41),
    ("COc1ncc(-c2ccncc2)cc1N", "log10 of Ki", 1.96),
    ("Nc1cc(-c2ccccc2)cnc1O", "log10 of Ki", 2.11),
    ("COc1cc(OC)cc(C(=O)Nc2cc(-c3ccncc3)c[nH]c2=O)c1", "log10 of Ki", 1.48),
    ("O=C(Nc1cc(-c2ccncc2)c[nH]c1=O)c1ccc(N2CCCCC2)cc1", "log10 of Ki", 0.46),
]
